Tested on: NS5A chimeric genotype 2a JFH-1 replicon with genotype 2a J6 strain NS5A gene (M31 present)
Experiment: microbe, parasite or virus in culture
Type: cell-based, HCV
Conditions: Hepatitis C virus, read-out: 2a J6
measured-attribute: EC50

INSERT INTO measurements (smiles_notation, measured_attribute, reported_result) VALUES
  ('COC(=O)N[C@H](C(=O)N1C[C@@H](C)C[C@H]1c1nc2ccc3cc4c(cc3c2[nH]1)OCc1cc(-c2cnc([C@@H]3CC[C@H](C)N3C(=O)[C@@H](NC(=O)OC)C(C)C)[nH]2)ccc1-4)C(C)C', 'EC50', '< 1 nM'),
  ('COC[C@H]1C[C@@H](c2nc3ccc4cc5c(cc4c3[nH]2)OCc2cc(-c3cnc([C@@H]4C[C@H](C)CN4C(=O)[C@H](NC(=O)OC)c4ccccc4)[nH]3)ccc2-5)N(C(=O)[C@@H](NC(=O)OC)C(C)C)C1', 'EC50', '< 1 nM'),
  ('COC[C@H]1C[C@@H](c2nc3ccc4cc5c(cc4c3[nH]2)OCc2cc(-c3cnc([C@@H]4CCCN4C(=O)[C@@H](NC(=O)OC)C(C)C)[nH]3)ccc2-5)N(C(=O)[C@@H](NC(=O)OC)C(C)C)C1', 'EC50', '< 1 nM'),
  ('COC[C@H]1C[C@@H](c2nc3ccc4cc5c(cc4c3[nH]2)OCc2cc(-c3ccc4nc([C@@H]6CCCN6C(=O)[C@@H](NC(=O)OC)C(C)C)[nH]c4c3)ccc2-5)N(C(=O)[C@H](NC(=O)OC)c2ccccc2)C1', 'EC50', '> 5 nM');

====

Tested on: stable HCV 1a RLuc replicon cells (genotype 1a H77 replicon)
Test: microbe, parasite or virus in culture
Assay type: cell-based
Conditions: Hepatitis C virus, read-out: 1a (nM)
Mark T only for EC50 values smaller than 0.009 nM; exact matches and larger values are F.

INSERT INTO measurements (compound, category_label) VALUES
  ('COC[C@H]1C[C@@H](c2ncc(-c3ccc4c(c3)COc3cc5c(ccc6nc([C@@H]7CCCN7C(=O)[C@@H](NC(=O)OC)C(C)C)[nH]c65)cc3-4)[nH]2)N(C(=O)[C@H](NC(=O)OC)c2ccccc2)C1', 'T'),
  ('COC[C@H]1C[C@@H](c2nc3ccc4cc5c(cc4c3[nH]2)OCc2cc(-c3cnc([C@@H]4CC[C@H](C)N4C(=O)[C@@H](NC(=O)OC)C(C)C)[nH]3)ccc2-5)N(C(=O)[C@H](NC(=O)OC)c2ccccc2)C1', 'F'),
  ('COC[C@H]1C[C@@H](c2nc3ccc4cc5c(cc4c3[nH]2)OCc2cc(-c3cnc([C@@H]4C[C@H](C)CN4C(=O)[C@@H](NC(=O)OC)C(C)C)[nH]3)ccc2-5)N(C(=O)[C@@H](NC(=O)OC)C(C)C)C1', 'F'),
  ('COC(=O)N[C@H](C(=O)N1CCC[C@H]1c1ncc(-c2ccc3c(c2)COc2cc4c(cc2-3)CCc2[nH]c([C@@H]3CCCN3C(=O)[C@@H](NC(=O)OC)C(C)C)nc2-4)[nH]1)C(C)C', 'F'),
  ('COC(=O)N[C@H](C(=O)N1C[C@@H](COC(F)F)C[C@H]1c1nc2ccc3cc4c(cc3c2[nH]1)OCc1cc(-c2cnc(C3CCCN3C(=O)OC(C)(C)C)[nH]2)ccc1-4)C(C)C (some centres unmarked)', 'F'),
  ('COC[C@H]1C[C@@H](c2ncc(-c3ccc4c(c3)COc3cc5c(ccc6nc([C@@H]7CC[C@H](C)N7C(=O)[C@@H](NC(=O)OC)C(C)C)[nH]c65)cc3-4)[nH]2)N(C(=O)[C@H](NC(=O)OC)c2ccccc2)C1', 'F'),
  ('CC[C@H](C)[C@H](NC(=O)OC)C(=O)N1[C@@H](C)CC[C@H]1c1ncc(-c2ccc3c(c2)COc2cc4c(ccc5nc([C@@H]6C[C@H](COC)CN6C(=O)[C@@H](NC(=O)OC)C(C)C)[nH]c54)cc2-3)[nH]1', 'T'),
  ('CC[C@H](C)[C@H](NC(=O)OC)C(=O)N1C[C@@H](COC)C[C@H]1c1ncc(-c2ccc3c(c2)COc2cc4c(ccc5nc([C@@H]6C[C@H](COC)CN6C(=O)[C@@H](NC(=O)OC)[C@@H](C)CC)[nH]c54)cc2-3)[nH]1', 'F'),
  ('COC[C@H]1C[C@@H](c2ncc(-c3ccc4c(c3)COc3cc5c(ccc6nc([C@@H]7C[C@H](C)CN7C(=O)[C@@H](NC(=O)OC)C(C)C)[nH]c65)cc3-4)[nH]2)N(C(=O)[C@H](NC(=O)OC)c2ccccc2)C1', 'F'),
  ('COC[C@@H]1C[C@@H](c2nc3ccc4cc5c(cc4c3[nH]2)OCc2cc(-c3cnc([C@@H]4CCCN4C(=O)[C@@H](NC(=O)OC)C(C)C)[nH]3)ccc2-5)N(C(=O)[C@H](NC(=O)OC)c2ccccc2)C1', 'T'),
  ('CCO[C@H]1C[C@@H](c2nc3ccc4cc5c(cc4c3[nH]2)OCc2cc(-c3cnc([C@@H]4CCCN4C(=O)[C@H](NC(=O)OC)c4ccccc4)[nH]3)ccc2-5)N(C(=O)[C@@H](NC(=O)OC)C(C)C)C1', 'F'),
  ('COC(=O)N[C@H](C(=O)N1[C@@H](C)CC[C@H]1c1ncc(-c2ccc3c(c2)COc2cc4c(ccc5nc([C@@H]6CCCN6C(=O)[C@@H](NC(=O)OC)C6CCOCC6)[nH]c54)cc2-3)[nH]1)C(C)C', 'F'),
  ('COC(=O)N[C@H](C(=O)N1[C@H](c2nc3ccc4cc5c(cc4c3[nH]2)OCc2cc(-c3cnc(C4CCCN4C(=O)[C@H](NC(=O)OC)c4ccccc4)[nH]3)ccc2-5)C[C@@H]2CCC[C@@H]21)C(C)C (some centres unmarked)', 'F'),
  ('COC[C@H]1C[C@@H](c2ncc(-c3ccc4c(c3)COc3cc5c(ccc6nc([C@@H]7C[C@H]8C[C@H]8N7C(=O)[C@@H](NC(=O)OC)C(C)C)[nH]c65)cc3-4)[nH]2)N(C(=O)[C@H](NC(=O)OC)c2ccccc2)C1', 'F'),
  ('COC[C@H]1C[C@@H](c2nc3ccc4cc5c(cc4c3[nH]2)OCc2cc(-c3ccc4nc([C@@H]6CCCN6C(=O)[C@@H](NC(=O)OC)C(C)C)[nH]c4c3)ccc2-5)N(C(=O)[C@@H](NC(=O)OC)C(C)C)C1', 'T');

====

System: stable HCV 1a RLuc replicon cells (genotype 1a H77 replicon)
Experiment: microbe, parasite or virus in culture
Type: cell-based
Conditions: Hepatitis C virus, read-out: 1a
// EC50 lookup, one value per entry
measured-attribute: EC50

INSERT INTO measurements (smiles_notation, reported_result) VALUES
  ('COC[C@H]1C[C@@H](c2nc3ccc4cc5c(cc4c3[nH]2)OCc2cc(-c3cnc([C@@H]4C[C@H](C)CN4C(=O)[C@H](NC(=O)OC)c4ccccc4)[nH]3)ccc2-5)N(C(=O)[C@@H](NC(=O)OC)C(C)C)C1', '< 1 nM'),
  ('CC[C@H](C)[C@H](NC(=O)OC)C(=O)N1[C@@H](C)CC[C@H]1c1ncc(-c2ccc3c(c2)COc2cc4c(ccc5nc([C@@H]6C[C@H](COC)CN6C(=O)[C@@H](NC(=O)OC)C(C)C)[nH]c54)cc2-3)[nH]1', '< 1 nM'),
  ('COC[C@H]1C[C@@H](c2ncc(-c3ccc4c(c3)COc3cc5c(ccc6nc([C@@H]7C[C@H]8C[C@H]8N7C(=O)[C@H](NC(=O)OC)c7ccccc7)[nH]c65)cc3-4)[nH]2)N(C(=O)[C@@H](NC(=O)OC)C(C)C)C1', '< 1 nM');

====

Test system: NS5A chimeric genotype 2a JFH-1 replicon with genotype 2b MD2b-1 strain NS5A gene (M31 present)
Experiment: microbe, parasite or virus in culture
Assay type: cell-based, HCV
Details: Hepatitis C virus, read-out: 2b (s) (nM)
Listed below: EC50 values for each entry.
measured-attribute: EC50

INSERT INTO measurements (molecule, measured_attribute, reported_result) VALUES
  ('COC[C@H]1C[C@@H](c2nc3ccc4cc5c(cc4c3[nH]2)OCc2cc(-c3cnc([C@@H]4CCCN4C(=O)[C@@H](NC(=O)OC)C(C)C)[nH]3)ccc2-5)N(C(=O)[C@@H](NC(=O)OC)C(C)C)C1', 'EC50', '0.541 nM'),
  ('COC[C@H]1C[C@@H](c2nc3ccc4cc5c(cc4c3[nH]2)OCc2cc(-c3ccc4nc([C@@H]6CCCN6C(=O)[C@@H](NC(=O)OC)C(C)C)[nH]c4c3)ccc2-5)N(C(=O)[C@H](NC(=O)OC)c2ccccc2)C1', 'EC50', '9.56 nM'),
  ('COC[C@@H]1C[C@@H](c2nc3ccc4cc5c(cc4c3[nH]2)OCc2cc(-c3cnc([C@@H]4CCCN4C(=O)[C@@H](NC(=O)OC)C(C)C)[nH]3)ccc2-5)N(C(=O)[C@H](NC(=O)OC)c2ccccc2)C1', 'EC50', '0.023 nM'),
  ('CCC(=O)N[C@@H](C(=O)N1CCC[C@H]1c1ncc(-c2ccc3c(c2)COc2cc4c(ccc5nc([C@@H]6CCCN6C(=O)[C@@H](NC(=O)OC)C(C)C)[nH]c54)cc2-3)[nH]1)c1ccccc1', 'EC50', '0.04 nM'),
  ('COC[C@H]1C[C@@H](c2ncc(-c3ccc4c(c3)COc3cc5c(cc3-4)CCc3nc([C@@H]4CCCN4C(=O)[C@@H](NC(=O)OC)C(C)C)[nH]c3-5)[nH]2)N(C(=O)[C@H](NC(=O)OC)c2ccccc2)C1', 'EC50', '0.045 nM'),
  ('COC[C@H]1C[C@@H](c2nc3ccc4cc5c(cc4c3[nH]2)OCc2cc(-c3cnc([C@@H]4CC6C[C@H]6N4C(=O)[C@@H](NC(=O)OC)C(C)C)[nH]3)ccc2-5)N(C(=O)[C@H](NC(=O)OC)c2ccccc2)C1 (stereo partly drawn)', 'EC50', '0.039 nM'),
  ('COC(=O)N[C@H](C(=O)N1[C@@H](C)CC[C@H]1c1nc2ccc3cc4c(cc3c2[nH]1)OCc1cc(-c2cnc([C@@H]3C[C@H](C)CN3C(=O)[C@@H](NC(=O)OC)[C@@H](C)OC)[nH]2)ccc1-4)C(C)C', 'EC50', '0.049 nM'),
  ('COC(=O)N[C@H](C(=O)N1[C@@H]2C[C@@H]2C[C@H]1c1ncc(-c2ccc3c(c2)COc2cc4c(ccc5nc([C@@H]6C[C@H](COC(F)F)CN6C(=O)[C@H](NC(=O)OC)c6ccccc6)[nH]c54)cc2-3)[nH]1)C(C)C', 'EC50', '0.123 nM'),
  ('COC(=O)N[C@H](C(=O)N1CCC[C@H]1c1ncc(-c2ccc3c(c2)COc2cc4c(ccc5nc([C@@H]6C[C@H]7C[C@H]7N6C(=O)[C@@H](NC(=O)OC)C(C)C)[nH]c54)cc2-3)[nH]1)C(C)C', 'EC50', '0.643 nM');

Data credit: patent US8575135B2
